Values compiled from paper PMC11769049.

ASSAY SYSTEM: Aβ1–42 (Homo sapiens, UniProt P05067)
Sequence (P05067 672-713 limits assumed): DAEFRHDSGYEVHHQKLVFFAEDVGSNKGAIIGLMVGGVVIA
TEST DESCRIPTION: Aβ1–42 aggregation inhibition, thioflavin-T (ThT) fluorescence assay
Below, each of the molecules is paired with its reported IC50 value.
Just the number please, in µM, no unit attached.

O=c1cc(-c2ccccc2)oc2cc(O)cc(O)c12 [Chrysin]    5.86

Moving on to the next molecule.
## Task Recorded IC50 for COc1c(O)cc2oc(-c3ccccc3)cc(=O)c2c1O [Oroxylin A] , please?
## Result 8.19
